# experimental details: Inhibition of Norovirus recombinant 3CL protease using Edans-EPDFHLQGPEDLAK-Dabcyl as substrate for 30 mins by fluorometry
pIC50: −log10 of the molar value.
Quick reference for pIC50 among some molecules
assay endpoint: pIC50

[[record]]
molecule = "CC(C)C[C@H](NC(=O)OCc1ccccc1)C(=O)N[C@H](C=O)CC1CCNC1=O (stereo not given in full)"
assay_endpoint = "pIC50"
observed = 6.22

[[record]]
molecule = "CC(C)C[C@H](NC(=O)OCCc1ccccc1)C(=O)N[C@H](C=O)CC1CCNC1=O (stereo not given in full)"
assay_endpoint = "pIC50"
observed = 5.72

[[record]]
molecule = "CC(C)C[C@H](NC(=O)OCc1ccc(F)cc1)C(=O)N[C@H](C=O)CC1CCNC1=O (stereo not given in full)"
assay_endpoint = "pIC50"
observed = 5.74

[[record]]
molecule = "CCCC[C@H](NC(=O)OCc1ccccc1)C(=O)N[C@H](C=O)CC1CCNC1=O (stereo not given in full)"
assay_endpoint = "pIC50"
observed = 5.35

[[record]]
molecule = "CC(C)C[C@H](NC(=O)OCc1cccc(F)c1)C(=O)N[C@H](C=O)CC1CCNC1=O (stereo not given in full)"
assay_endpoint = "pIC50"
observed = 6.15

[[record]]
molecule = "CC(C)C[C@H](NC(=O)OCCC1CCCCC1)C(=O)N[C@H](C=O)CC1CCNC1=O (stereo not given in full)"
assay_endpoint = "pIC50"
observed = 6.22

[[record]]
molecule = "CCOC(=O)N[C@@H](C)C(=O)N[C@@H](CC1CCNC1=O)C(O)(C(=O)NC1CC1)S(=O)(=O)[O-].[Na+] (stereo not given in full)"
assay_endpoint = "pIC50"
observed = 5.28

[[record]]
molecule = "CCC[C@H](NC(=O)OCc1ccccc1)C(=O)N[C@H](C=O)CC1CCNC1=O (stereo not given in full)"
assay_endpoint = "pIC50"
observed = 5.21

[[record]]
molecule = "O=C[C@H](CC1CCNC1=O)NC(=O)[C@H](CC1CCCCC1)NC(=O)OCc1ccccc1 (stereo not given in full)"
assay_endpoint = "pIC50"
observed = 6.30

[[record]]
molecule = "O=C[C@H](CC1CCNC1=O)NC(=O)[C@H](Cc1ccccc1)NC(=O)OCc1ccccc1 (stereo not given in full)"
assay_endpoint = "pIC50"
observed = 5.29


Where do the numbers come from? From ChEMBL document CHEMBL2311408.
